# System: Avena HPPD
# method-notes: HPPD activity assay, Avena HPPD
# Format: biochemical, Avena sativa
# test-conditions: normalized on Arabidopsis wild-type HPPD
For each of the compounds below, state its Normalized tolerance index TI.

CC1=NOC(c2c(Cl)ccc(C3=C(O)c4ncccc4C(C)(C)S3(=O)=O)c2Cl)C1 (stereo not shown) [Inhibitor 1]
4.7
CC1(C)c2cccnc2C(O)=C(c2ccc(Cl)nc2Cl)S1(=O)=O [Inhibitor 2]
2.8
CC1CC(c2c(Cl)ccc(C3=C(O)c4ncccc4CS3(=O)=O)c2Cl)=NO1 (stereo not shown) [Inhibitor 4]
5.3

Then this compound:
I am curious: what Normalized tolerance index TI value has been reported for COCCOCc1c(Cl)ccc(C2=C(O)c3ncccc3C(C)(C)S2(=O)=O)c1Cl [Inhibitor 3] ?
0.1

* * *

# Test system: Lolium HPPD
# method-notes: HPPD activity assay, Lolium HPPD
# Type: biochemical
# test-conditions: normalized on Arabidopsis wild-type HPPD
# Description: HPPD produces homogentisic acid and CO2 from 4-hydroxyphenylpyruvate (4-HPP) and O2. The activity assay for HPPD is based on the analysis of homogentisic acid by reversed phase HPLC. […] Activities are normalized by setting the uninhibited enzyme activity to 100%. IC50 values are calculated using non-linear regression. […] Inhibitors are dissolved in DMSO (dimethylsulfoxide) to a concentration of 0.5 mM. […] IC50 values are calculated using non-linear regression. […]
measured-parameter: Normalized tolerance index TI
Numbers only.

Consider the worked cases shown below.
CC1CC(c2c(Cl)ccc(C3=C(O)c4ncccc4CS3(=O)=O)c2Cl)=NO1 (stereo not shown)
4.5
CC1(C)c2cccnc2C(O)=C(c2ccc(Cl)nc2Cl)S1(=O)=O
1.8
COCCOCc1c(Cl)ccc(C2=C(O)c3ncccc3C(C)(C)S2(=O)=O)c1Cl
0.3

With those in mind, consider the next compound.
Please provide the recorded Normalized tolerance index TI for CC1=NOC(c2c(Cl)ccc(C3=C(O)c4ncccc4C(C)(C)S3(=O)=O)c2Cl)C1 (stereo not shown) , tested on Lolium HPPD.
4.2

* * *

# tested-system: Hordeum HPPD variant L320N (Hordeum vulgare, UniProt O48604, A164G/L320N/R146V/R147D/R148G)
# Construct: His (N); made in house; host or cells: E. coli BL21 (DE3)
# Sequence (O48604 whole entry R146V/R147D/R148G/A164G/L320N): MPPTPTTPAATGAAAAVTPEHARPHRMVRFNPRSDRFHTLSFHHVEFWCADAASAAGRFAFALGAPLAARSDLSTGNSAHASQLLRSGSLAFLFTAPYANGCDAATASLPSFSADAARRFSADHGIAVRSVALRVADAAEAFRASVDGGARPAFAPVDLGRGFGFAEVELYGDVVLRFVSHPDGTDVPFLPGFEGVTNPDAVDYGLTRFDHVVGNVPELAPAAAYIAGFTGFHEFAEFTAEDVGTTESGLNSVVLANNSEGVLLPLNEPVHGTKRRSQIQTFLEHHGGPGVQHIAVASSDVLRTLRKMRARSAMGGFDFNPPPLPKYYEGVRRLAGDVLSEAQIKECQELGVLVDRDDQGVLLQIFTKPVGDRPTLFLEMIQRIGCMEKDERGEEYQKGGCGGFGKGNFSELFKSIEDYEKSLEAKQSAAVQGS
# method-notes: HPPD activity assay, Hordeum HPPD mutant L320N
# Type: biochemical
# test-conditions: normalized on Hordeum wild-type HPPD
measured-parameter: Normalized tolerance index TI
Numbers only.

Worked examples follow.
COCCOCc1c(Cl)ccc(C2=C(O)c3ncccc3C(C)(C)S2(=O)=O)c1Cl [Inhibitor 3]
1.9
CC1=NOC(c2c(Cl)ccc(C3=C(O)c4ncccc4C(C)(C)S3(=O)=O)c2Cl)C1 (stereo not shown) [Inhibitor 1]
2
CC1(C)c2cccnc2C(O)=C(c2ccc(Cl)nc2Cl)S1(=O)=O [Inhibitor 2]
1.7

Next molecule, Normalized tolerance index TI to be filled in.
Recorded Normalized tolerance index TI of CC1(C)c2cccnc2C(O)=C(c2ccc(Br)cc2C(F)(F)F)S1(=O)=O [Inhibitor 5] , please.
2.4

* * *

Task for the reader: assign each of the following compounds its reported Normalized tolerance index TI.
# tested-system: Hordeum HPPD variant L353M, P321R, V212I (Hordeum vulgare, UniProt O48604, L353M/P321R/V212I)
# Construct: His (N); made in house; host or cells: E. coli BL21 (DE3)
# Sequence (O48604 whole entry R146V/R147D/R148G/A164G/V212I/P321R/L353M): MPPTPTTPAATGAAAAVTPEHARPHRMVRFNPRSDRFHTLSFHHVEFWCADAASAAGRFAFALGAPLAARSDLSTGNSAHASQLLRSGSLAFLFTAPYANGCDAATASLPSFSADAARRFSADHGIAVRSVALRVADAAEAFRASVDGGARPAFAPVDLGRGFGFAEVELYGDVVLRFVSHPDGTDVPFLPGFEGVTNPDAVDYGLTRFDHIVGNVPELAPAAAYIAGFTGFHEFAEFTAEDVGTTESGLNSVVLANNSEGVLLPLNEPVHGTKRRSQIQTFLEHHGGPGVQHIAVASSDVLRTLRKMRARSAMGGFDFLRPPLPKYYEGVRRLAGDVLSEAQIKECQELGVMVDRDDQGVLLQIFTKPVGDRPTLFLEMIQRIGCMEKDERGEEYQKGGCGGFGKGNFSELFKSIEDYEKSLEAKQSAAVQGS
# method-notes: HPPD activity assay, Hordeum HPPD mutant L353M, P321R, V212I
# Format: biochemical
# test-conditions: normalized on Hordeum wild-type HPPD
Answers are plain numbers.

COCCOCc1c(Cl)ccc(C2=C(O)c3ncccc3C(C)(C)S2(=O)=O)c1Cl
1.9
CC1(C)c2cccnc2C(O)=C(c2ccc(Cl)nc2Cl)S1(=O)=O
1.5

Hey, can you go through the list below and give me Normalized tolerance index TI for every item?
1. CC1(C)c2cccnc2C(O)=C(c2ccc(Br)cc2C(F)(F)F)S1(=O)=O
2. CC1=NOC(c2c(Cl)ccc(C3=C(O)c4ncccc4C(C)(C)S3(=O)=O)c2Cl)C1 (stereo not shown)

1: 3.3; 2: 2.2
